Each recorded value in this set is attributed to PubChem BioAssay AID2732.

# assay protocol: blockers of ER-stress CHOP reporter expression – cell-based, unfolded protein response, luciferase reporter, primary screen (AID 2732);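 note: 0% = tunicamycin plus vehicle and 100% = wells without tunicamycin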
# conditions used: CHO-K1 CHOP-promoter luciferase, tunicamycin-induced, 15-18 h; at 10 µM
About 8,200 (3.7%) of roughly 220,000 compounds were called active.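 Rule for the calls: active = compounds that reduced the stress-induced luciferase reporter signal by more than about 70% of percent inhibition (limit read from the data); inactive = the rest.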 The entries come from a sample that favours actives as a whole.
Respond only with the outcome that fits, drawn from TRUE = active, FALSE = inactive

INSERT INTO results (compound, cat) VALUES
  ('O=[N+]([O-])c1c(NCCO)cc(Sc2nc3ccccc3s2)c2nonc12', 'TRUE'),
  ('CCOC(=O)C1CCN(C(=O)Nc2ccc(C)c(Cl)c2)CC1', 'FALSE'),
  ('O=C(Nc1cccc(S(=O)(=O)NC2=NCCC2)c1)C1CCCCC1', 'FALSE'),
  ('Cc1nc(NCc2ccccc2)c(C(N)=O)c2c1COC(C)(C)C2', 'FALSE'),
  ('C[n+]1ccccc1C1CCCC/C1=N\Nc1ccc([N+](=O)[O-])cc1[N+](=O)[O-] (stereo not drawn)', 'FALSE');

Kindly provide the recorded test outcome for the following compound: `CSC1=NCCN1C(=O)Cc1cccc2ccccc12`
FALSE

Kindly provide the recorded test outcome for the following compound: `CCn1c(SCC(=O)N/N=C/c2ccncc2)nc2ccccc21`
FALSE

Kindly provide the recorded test outcome for the following compound: `CCCCc1nc(NCCN)c(C#N)c2c1CSC(C)(C)C2`
TRUE

###

# assay protocol: blockers of ER-stress CHOP reporter expression – cell-based, unfolded protein response, luciferase reporter, primary screen (AID 2732);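 note: 0% = tunicamycin plus vehicle and 100% = wells without tunicamycin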
# conditions used: CHO-K1 CHOP-promoter luciferase, tunicamycin-induced, 15-18 h; at 10 µM
Hit rate of the full screen: of about 220,000 compounds, about 8,200 (3.7%) were called active.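 The calls were made as follows: active = compounds that reduced the stress-induced luciferase reporter signal by more than about 70% of percent inhibition (limit read from the data); inactive = the rest.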 The sample holds actives, similar compounds and a random draw of the others, so the mix is not that of the screen.
Respond only with the outcome that fits, drawn from active, inactive

Would you please look over these solved cases?
INSERT INTO measurements (molecule, cat) VALUES
  ('Oc1ccc(/C=N/Nc2nc(-c3ccccc3F)nc3ccccc23)c(O)c1', 'inactive'),
  ('Cn1c(SCC(=O)Nc2ccc(Br)cc2F)nnc1-c1ccco1', 'inactive'),
  ('O=C(CCC(=O)OCc1ccc(Cl)cc1)Nc1ccccc1', 'inactive'),
  ('CCN(CC)C(=O)c1sc(NC(=O)c2ccco2)c(C#N)c1C', 'inactive'),
  ('Clc1ccccc1CSc1nnc(-c2ccco2)c(-c2ccco2)n1', 'active');

Kindly provide the recorded test outcome for the following molecule: NC(=O)[C@H]1CC2(CC(c3cccc(NC(=O)[C@H]4CCC(=O)N4)c3)=NO2)CN1C(=O)c1ccccc1C(=O)c1ccccc1 (stereo partly specified)
inactive

Kindly provide the recorded test outcome for the following molecule: `CCCc1ccc(-c2c(C)sc(NC(=O)c3ccnn3C)c2C#N)cc1`
active

Kindly provide the recorded test outcome for the following molecule: `COc1ccc(CCNC(=O)CSc2nc(C)nc3c2oc2ccccc23)cc1OC`
inactive

###

# assay protocol: blockers of ER-stress CHOP reporter expression – cell-based, unfolded protein response, luciferase reporter, primary screen (AID 2732);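 note: 0% = tunicamycin plus vehicle and 100% = wells without tunicamycin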
# conditions used: CHO-K1 CHOP-promoter luciferase, tunicamycin-induced, 15-18 h; at 10 µM; hits give high values
Out of some 220,000 compounds screened, about 8,200 (3.7%) were called active. The entries come from a sample that favours actives as a whole.
Reported values of inhibition for individual entries
Express it in %; write the number only.

Reference set (2 entries):
INSERT INTO results (compound, property, measured_number) VALUES
  ('Nc1ccccc1Sc1cc(Cl)nnc1Cl', 'inhibition', 20),
  ('Cn1c(Cc2cccc3ccccc23)nnc1SCC(=O)N1CCN(c2cccc(Cl)c2)CC1', 'inhibition', 78.6);

inhibition in this record for `COCCCNC(=O)C1CCN(c2ccc(N3CCOCC3)nn2)CC1` : -10.8

inhibition in this record for `Cc1ccccc1NC(=O)Cc1nnc(SCC(=O)N2CCN(c3ccccc3)CC2)n1C` : 26.1

inhibition in this record for `CCOC(=O)/C(=C\c1ccc([N+](=O)[O-])cc1)C(=O)c1cc(C(C)=O)c(Nc2ccccc2)s1` : 112

inhibition in this record for `Cc1nc(C)c2c(c1C(F)(F)F)-c1ccccc1C2(F)F` : 84.7

inhibition in this record for `CCC(=O)/C=C1\Sc2ccccc2N1CC` : 14.1

inhibition in this record for `CCN1/C(=C/C(=S)Nc2ccccc2)Sc2ccccc21` : -10.3
